- TEST_SYSTEM: T1, hu-CD74 antigen (R&D SYSTEMS catalog #3590-CD-050) (human, UniProt P04233-2 73-232, limits assumed)
- T1 construct: Bought antigen; also called rhCD74; human CD74
- T1 sequence (looked up): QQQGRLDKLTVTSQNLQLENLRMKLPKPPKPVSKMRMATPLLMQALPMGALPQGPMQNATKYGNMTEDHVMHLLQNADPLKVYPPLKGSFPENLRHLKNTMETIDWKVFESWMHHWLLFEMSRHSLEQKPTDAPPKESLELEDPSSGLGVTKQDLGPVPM
- MEASUREMENT_PROTOCOL: SPR (Biacore T200), IgG captured on anti-human Fc, rhCD74 analyte
Below, each entry is listed with its recorded koff.

{"columns": ["BINDER", "UNIT_LABEL", "koff"],
 "data": [
  ["HC 1251_B08 (g)/LC 1337_A09 (g) (antibody, human IgG1, kappa, V domains shown, IgG format) VH: QVQLVESGGGVVQPGRSLRLSCAASGFNFSDYGMHWVRQAPGKGLEWVAVIWYDGSISYYADSVKGRFTISRDNSKNTLYLQMNSLRAEDTAVYYCARGGTVEHGAVYGTDVWGQGTTVTVSS VL: DIQMTQSPSSVSASVGDRVTITCRASQGIGSWLAWYQQKPGKAPKLLIYAADRLQSGVPSRFSGSGSGTDFTLTISSLQPEDFATYYCQQYHTYPLTFGGGTKVEIKR", "s⁻¹", "7.77e-05"],
  ["HC 1251_A06 (wt)/LC 1337_A09 (g) (antibody, human IgG1, kappa, V domains shown, IgG format) VH: QVQLVESGGGVVQPGRSLRLSCAASGFDFSSYGMHWVRQAPDKGLEWVAVIWDDGSDRYYADSVKGRFTISRDNSKNTLYLQMNSLRAEDTAVYYCARGGTRVLGAIHGTDVWGQGTTVTVSS VL: DIQMTQSPSSVSASVGDRVTITCRASQGIGSWLAWYQQKPGKAPKLLIYAADRLQSGVPSRFSGSGSGTDFTLTISSLQPEDFATYYCQQYHTYPLTFGGGTKVEIKR", "s⁻¹", 0.00011],
  ["HC 1251_B08 (g)/LC 1275_C10 (wt) (antibody, human IgG1, kappa, V domains shown, IgG format) VH: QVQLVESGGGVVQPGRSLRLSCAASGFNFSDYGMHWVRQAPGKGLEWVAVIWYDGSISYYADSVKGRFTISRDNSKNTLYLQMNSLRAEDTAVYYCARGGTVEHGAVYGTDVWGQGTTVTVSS VL: DIQMTQSPSSLSASVGDRVTITCRASQGVSSWLAWYQQKPEKAPKSLIYSARYLQSGVPSRFSGSGSGTDFTLTISSLQPEDFATYYCQQYNLYPLTFGGGTKVEIKR", "s⁻¹", 0.000155],
  ["HC 1251_B08 (wt)/LC 1337_A09 (wt) (antibody, human IgG1, kappa, V domains shown, IgG format) VH: QVQLVESGGGVVQPGRSLRLSCAASGFNFSDYGMHWVRQAPDKGLEWVAVIWYDGSISYYADSVKGRFTISRDNSKNTLYLQMNSLRAEDTAVYYCARGGTVEHGAVYGTDVWGQGATVTVSS VL: DIQMTQSPSSLSASVGDRVTITCRASQGIGSWLAWYQQKPEKAPKSLIYAADRLQSGVPSRFSGSGSGTDFTLTISSLQPEDFATYYCQQYHTYPLTFGGGTKVEIKR", "s⁻¹", 0.000116]
]}
